Please respond with reported FPN IC50 for every item in the list.
- tgt: T1, human ferroportin (SLC40A1) fused in frame with GFP, stably expressed in HEK293 cells (human, UniProt Q9NP59 1-571)
- T1 sequence (looked up): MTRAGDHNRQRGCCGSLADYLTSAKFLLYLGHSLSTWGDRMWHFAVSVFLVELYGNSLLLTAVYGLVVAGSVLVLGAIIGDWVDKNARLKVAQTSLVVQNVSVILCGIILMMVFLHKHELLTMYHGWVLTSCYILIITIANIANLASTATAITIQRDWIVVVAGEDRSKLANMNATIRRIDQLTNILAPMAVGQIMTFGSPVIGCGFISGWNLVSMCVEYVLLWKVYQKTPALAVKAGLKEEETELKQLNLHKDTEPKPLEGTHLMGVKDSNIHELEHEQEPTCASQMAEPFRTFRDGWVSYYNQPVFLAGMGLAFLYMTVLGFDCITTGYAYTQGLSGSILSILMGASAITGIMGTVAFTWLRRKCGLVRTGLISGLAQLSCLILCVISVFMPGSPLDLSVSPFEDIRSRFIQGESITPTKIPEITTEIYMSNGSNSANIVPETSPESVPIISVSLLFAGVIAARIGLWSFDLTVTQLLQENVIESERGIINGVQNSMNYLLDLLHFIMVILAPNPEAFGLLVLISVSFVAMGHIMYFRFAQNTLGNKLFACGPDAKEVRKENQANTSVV
- measurement-description: cell-based or functional assay
Non-standard residues stand in square brackets, D forms with d. Groups on a side chain read outwards from the residue. *: point of attachment. Gal = N6-(4-(galactopyranosyloxy)butanoyl) on the lysine side chain; Dip = N[C@H](C(=O)O)C(c1ccccc1)c1ccccc1; Palmitoyl = CCCCCCCCCCCCCCCC(=O)*; β3hF = N[C@H](CC(=O)O)Cc1ccccc1; Isovaleryl = CC(C)CC(=O)*; Ahx = NCCCCCC(=O)O
Kindly answer with a numeric value in nM, unit omitted.

Prompt line: Look up FPN IC50 for this binder: Isovaleryl-ETH[Dip]PLIK([Ahx-Palmitoyl])L-NH2 (SMILES CCCCCCCCCCCCCCCC(=O)NCCCCCC(=O)NCCCC[C@H](NC(=O)[C@@H](NC(=O)[C@H](CC(C)C)NC(=O)[C@@H]1CCCN1C(=O)[C@@H](NC(=O)[C@H](Cc1c[nH]cn1)NC(=O)[C@@H](NC(=O)[C@H](CCC(=O)O)NC(=O)CC(C)C)[C@@H](C)O)C(c1ccccc1)c1ccccc1)[C@@H](C)CC)C(=O)N[C@@H](CC(C)C)C(N)=O) [Isovaleric Acid-E-T-H-[Dpa]-P-L-I-[Lys(Ahx_Palm)]-L-NH2]
Response line: 37.4

Prompt line: Which FPN IC50 value belongs to Isovaleryl-ETH[Dip]PAIK([Ahx-Palmitoyl])L-NH2 (SMILES CCCCCCCCCCCCCCCC(=O)NCCCCCC(=O)NCCCC[C@H](NC(=O)[C@@H](NC(=O)[C@H](C)NC(=O)[C@@H]1CCCN1C(=O)[C@@H](NC(=O)[C@H](Cc1c[nH]cn1)NC(=O)[C@@H](NC(=O)[C@H](CCC(=O)O)NC(=O)CC(C)C)[C@@H](C)O)C(c1ccccc1)c1ccccc1)[C@@H](C)CC)C(=O)N[C@@H](CC(C)C)C(N)=O) [Isovaleric Acid-E-T-H-[Dpa]-P-A-I-[Lys(Ahx_Palm)]-L-NH2] ?
Response line: 82

Prompt line: Quick check: FPN IC50 of Isovaleryl-K(Gal)TH[Dip]PK([Ahx-Palmitoyl])[β3hF]-NH2 [Isovaleric Acid-[Lys(Gal-T-H-[Dpa]-P-[Lys(Ahx_Palm)]-[bhPhe]-NH2] ?
Response line: 758

Prompt line: Given XETHXPXX (N-term Isovaleric Acid; Dpa4; Lys(1PEG2_1PEG2_IsoGlu_C18_Diacid)6; C-term Propyl_Amine) [Isovaleric Acid-E-T-H-[Dpa]-P-[Lys(1PEG2_1PEG2_IsoGlu_C18_Diacid)]-Propyl_Amine] , state its recorded FPN IC50.
Response line: 470
